Molecular target: Retinaldehyde dehydrogenase 3 (Homo sapiens) (UniProt P47895)
Assay: qHTS for Inhibitors of the Aldehyde Dehydrogenase Family (ALDH1A3) Validation screen (AID 2061312); note: nearly all actives have a fitted effect of over 45% in size
Settings: ALDH1A3 enzyme inhibition qHTS validation, fluorescence; series mostly up to 84.7 µM
Results filed as inconclusive are left out. Calls of active or inactive are those of the source. Calls come from the whole dose curve; as a rule, active = well fitted inhibition curve with a large enough effect; inconclusive = small, poorly fitted or top-dose-only effect; inactive = no such curve, though single readings can be large or run the other way.
Log the outcome using a class from active, inactive

Study these solved cases before continuing.
compound	measurement-target	answer-label
CC1(C)CCC(C)(C)c2cc3c(cc21)Sc1ccccc1N=C3c1ccc(C(=O)O)cc1	Retinaldehyde dehydrogenase 3 (Homo sapiens) (UniProt P47895)	active
CON(C)C(=O)N1N=C(c2cc(F)ccc2F)S[C@@]1(CCCN)c1ccccc1	Retinaldehyde dehydrogenase 3 (Homo sapiens) (UniProt P47895)	inactive
CC1CCN(C(c2ccc(F)cc2)c2ccc(C(C)C(=O)O)cc2-c2ccc(C(F)(F)F)cc2)CC1 (configuration not stated)	Retinaldehyde dehydrogenase 3 (Homo sapiens) (UniProt P47895)	inactive

How was CC(Oc1cc(-n2cnc3ccc(CN4CCN(C)CC4)cc32)sc1C(N)=O)c1ccccc1C(F)(F)F (configuration not stated) classified in this test?
inactive

How was CCC(=O)NS(=O)(=O)c1ccc(-c2c(-c3ccccc3)noc2C)cc1 classified in this test?
inactive

How was N#CC(CCCN1CCC(O)(c2ccc(Cl)cc2)CC1)(c1ccccc1)c1ccccc1 classified in this test?
inactive

How was CC(=O)OC1C(=O)C2(C)C(O)CC3OCC3(OC(C)=O)C2C(OC(=O)c2ccccc2)C2(O)CC(OC(=O)C(O)C(NC(=O)c3ccccc3)c3ccccc3)C(C)=C1C2(C)C (configuration not stated) classified in this test?
inactive

* * *

Target: Retinaldehyde dehydrogenase 3 (Homo sapiens) (UniProt P47895)
Assay: qHTS for Inhibitors of the Aldehyde Dehydrogenase Family (ALDH1A3) Confirmatory screens (AID 2061311); note: nearly all actives have a fitted effect of over 60% in size
Settings: ALDH inhibition qHTS; series mostly up to 46 µM
Results filed as inconclusive are left out. Activity calls are given as the source filed them. The call rests on the fitted dose curve; in most records, active means well fitted inhibition curve with a large enough effect; inconclusive means small, poorly fitted or top-dose-only effect; inactive means no such curve, though single readings can be large or run the other way.
Log the outcome using a class from active, inactive

>>> print(df.to_string())
                               given_smiles  answer_label
0  Cc1ccc(S(=O)(=O)Nc2cnccc2C(=O)Nc2nc(-c3ccco3)cs2)cc1        active
1  CC[C@H]1CN(C(=O)Nc2cccc(OC)c2)CC[C@H]1CC(=O)NCc1ccccc1      inactive
2            CN(C)c1cnc2c(O)ccc(C(=O)O)c2c1        active
3  C[C@]12CC[C@@H]3c4ccc(O)c(O)c4CC[C@H]3[C@@H]1CCC2=O        active
4    Cc1ccc(-c2ccnc(N3CCC(C(N)=O)CC3)n2)cc1        active
5  C/C(=C\c1ccc2c(c1)OCO2)C1Nc2cccc3cccc(c23)N1        active
6  CC(=O)N1CCN(c2ccc(NS(=O)(=O)c3ccc4c(c3)CC(=O)N4)cc2)CC1      inactive
7  O=C1Cc2cc(S(=O)(=O)N3CCN(c4ccc(F)cc4)CC3)ccc2N1      inactive

Note: attention shifts to another entry.
How was CCOc1ccc(CCNC(=O)c2ccc(N3N=C(C)CC3=O)cc2)cc1OCC classified in this test?
active

* * *

Assay: BET inhibitor-based combinations targeting novel dependencies in MECOM-rearranged (r) AML: MV-4-11 cell line (AID 2202233); note: nearly all actives have a fitted effect of over 45% in size
Conditions: MV-4-11 AML viability, CellTiter-Glo luminescence, 48 h; series mostly up to 46 µM
Results filed as inconclusive are left out. The source made the active and inactive calls. The call rests on the fitted dose curve; in most records, active means well fitted inhibition curve with a large enough effect; inconclusive means small, poorly fitted or top-dose-only effect; inactive means no such curve, though single readings can be large or run the other way.
Log the outcome using a class from 1 (yes) = active, 0 (no) = inactive

Study these solved cases before continuing.
given-smiles	answer-label
CCNC(=O)Nc1ccc(Oc2ncnc(N)c2/C=N/OC)cc1Cl	1 (yes)
CO[C@H]1C(=O)[C@]2(C)[C@@H](OC)C[C@H]3OC[C@@]3(OC(C)=O)[C@H]2[C@H](OC(=O)c2ccccc2)[C@]2(O)C[C@H](OC(=O)[C@H](O)[C@@H](NC(=O)OC(C)(C)C)c3ccccc3)C(C)=C1C2(C)C	1 (yes)

How was Nc1nccc(-c2c(-c3ccc(F)cc3)ncn2C2CCN(Cc3ccon3)CC2)n1 classified in this test?
1 (yes)

How was COc1cc(Nc2ncc(F)c(Nc3ccc4c(n3)N(COP(=O)(O)O)C(=O)C(C)(C)O4)n2)cc(OC)c1OC classified in this test?
1 (yes)

Reference for the values: PubChem BioAssay (NCATS)
